Every entry's value here was drawn from PubChem BioAssay (NCI).

Tested on: UACC-257 melanoma
assay.text: NCI tumour cell line growth inhibition, 48 h
Below: a set of entries, each annotated with reported TGI.

According to the records, this compound COc1c2c3ccccc3nc-2n(C)c2ccccc12 displays TGI of 55.6 µM

According to the records, this compound Cc1ccc(/C=N/Nc2nc3ccccc3s2)s1 displays TGI of > 100 µM

According to the records, this compound CC(=O)OCc1ccc2oc(=O)c(C(=O)Oc3cccc(Cl)c3)cc2c1 displays TGI of > 100 µM

According to the records, this compound NC1OC(COC(=O)c2ccccc2)C(O)C(OC(=O)c2ccccc2)C1OC(=O)c1ccccc1 (stereo not drawn) displays TGI of 47.2 µM

According to the records, this compound COc1ccc(CC2c3cc(OC)c(OC)c(OC)c3CC[N+]2(C)C)cc1Oc1ccc(CC2c3cc4c(c(OC)c3CC[N+]2(C)C)OCO4)cc1 (stereo not drawn) displays TGI of > 100 µM

According to the records, this compound CC(=O)[O-].CC(=O)[O-].O=C(N/N=C/c1cc(Cl)cc(Cl)c1O)c1ccncc1.[Ni+2] displays TGI of 96.6 µM

According to the records, this compound COc1ccc(-c2nsc3c2NC(=O)CC3c2ccc(F)cc2)cc1 (stereo not drawn) displays TGI of > 100 µM

According to the records, this compound CC(C)CC1C(=O)N2CCC[C@H]2C2(O)O[C@](NC(=O)C3C=C4c5cccc6[nH]c(Br)c(c56)C[C@H]4N(C)C3)(C(C)C)C(=O)N12 (stereo partly drawn) displays TGI of > 100 µM

According to the records, this compound COc1c2ccoc2cc2oc(=O)ccc12 displays TGI of > 100 µM

According to the records, this compound CN1C(=O)CN2C(Cl)(Cl)C2(c2ccccc2F)c2cc([N+](=O)[O-])ccc21 (stereo not drawn) displays TGI of > 100 µM

According to the records, this compound C=CCCOC(=O)CO[N+](=O)[O-] displays TGI of > 100 µM

According to the records, this compound CCSC1=N/C(=C\c2ccco2)C(NN)=N1 displays TGI of > 50 µM

According to the records, this compound O=c1cc(-c2ccccc2)oc2cc(OCC(O)COc3ccc4c(=O)cc(-c5ccccc5)oc4c3)ccc12 displays TGI of > 100 µM
